assay_text: qHTS of pediatric cancer cell lines to identify multiple opportunities for drug repurposing: Primary screen for Rh18 cells (AID 1347102); further: nearly all actives have a fitted effect of over 65% in size
cond: Rh18 rhabdomyosarcoma viability, CellTiter-Glo luminescence, 48 h; series mostly up to 46 µM
Records with an inconclusive call do not appear. Activity calls are given as the source filed them. The call rests on the fitted dose curve; in most records, active means well fitted cell-killing curve with a large enough effect; inconclusive means small, poorly fitted or top-dose-only effect; inactive means flat fitted curve, though single readings scatter.
Log the outcome using a class from TRUE for active, FALSE for inactive

Please review the entries below; each comes with its answer.
{"compound": "C=C1C(=O)O[C@H]2[C@@H]1CCC(C)=CCC[C@@]1(C)O[C@@H]21", "class_assignment": "TRUE"}
{"compound": "Cc1cc(C(=O)NOCCO)c(Nc2ccc(I)cc2F)n(C)c1=O", "class_assignment": "FALSE"}
{"compound": "CCN(CC)Cc1ccc2cc(COC(=O)Nc3ccc(C(=O)NO)cc3)ccc2c1", "class_assignment": "TRUE"}

Per the assay record, what outcome was assigned to Cc1cn([C@@H]2O[C@H](CO)[C@@H](O)[C@H]2F)c(=O)[nH]c1=O ? FALSE

Per the assay record, what outcome was assigned to Cn1cnc2c(F)c(Nc3ccc(Br)cc3F)c(C(=O)NOCCO)cc21 ? FALSE

Per the assay record, what outcome was assigned to CCCCCCCCCCCCCCCC(=O)OC[C@@H](NC(=O)C(Cl)Cl)[C@H](O)c1ccc([N+](=O)[O-])cc1 ? FALSE

Per the assay record, what outcome was assigned to Nc1nc(=O)n([C@H]2C[C@H](O)[C@@H](CO)O2)cc1F ? FALSE

Per the assay record, what outcome was assigned to NC1=N[C@H]2[C@H](CS[C@H]2CCCCC(=O)O)N1 ? FALSE

Per the assay record, what outcome was assigned to CC(O)(C#Cc1ccc2c(c1)N(c1nc(N)ncc1Cl)CC2)c1nccs1 (stereo not given) ? FALSE

Per the assay record, what outcome was assigned to Nc1nc(=O)n([C@H]2CSC(CO)O2)cc1F (stereo not given in full) ? FALSE

* * *

Test system: CRL-7250
assay_text: Cytotoxic Profiling of Annotated Libraries Using Quantitative High-Throughput Screening (AID 1296008); further: nearly all actives have a fitted effect of over 60% in size; further: potency means the concentration at half of the fitted maximal effect
cond: Five cell lines viability, CellTiter-Glo ATP luminescence, 48-72 h
Results filed as inconclusive are left out. Calls of active or inactive are those of the source. Calls follow the shape of the dose curve; as a rule, active = well fitted inhibition curve with a large enough effect; inconclusive = small, poorly fitted or top-dose-only effect; inactive = flat fitted curve, though single readings scatter.
assay_endpoint: Potency

Some molecules with recorded Potency:
{"molecule": "CC(C)(C)[C@H](NC(=O)c1ccc(N)c(Cl)c1)C(=O)N1CCC[C@@H]1C(=O)N[C@H](C#N)CC(=O)O", "Potency": "inactive"}
{"molecule": "COc1cccc2c1C(=O)c1c(O)c3c(c(O)c1C2=O)C[C@@](O)(C(C)=O)C[C@H]3O[C@H]1C[C@H](N)[C@H](O)[C@H](C)O1", "Potency": "0.132 µM (active)"}
{"molecule": "CCOc1cc2ncc(C#N)c(Nc3ccc(OCc4ccccn4)c(Cl)c3)c2cc1NC(=O)C=CCN(C)C", "Potency": "1.05 µM (active)"}
{"molecule": "CN[C@@H]1C[C@H]2O[C@@](C)([C@H]1OC)n1c3ccccc3c3c4c(c5c6ccccc6n2c5c31)C(=O)N[C@H]4O", "Potency": "0.264 µM (active)"}
{"molecule": "OC[C@H]1OC(O)C[C@@H](O)[C@H]1O (stereo partly drawn)", "Potency": "inactive"}

Record O=C(C=Cc1ccc(CN(CCO)CCc2c[nH]c3ccccc23)cc1)NO , field Potency: 0.833 µM (active)

Record N#Cc1c(NC(=O)c2cccc3ccccc23)sc2c1CCCC2 , field Potency: 1.32 µM (active)

Record CC(=O)[C@]1(O)Cc2c(O)c3c(c(O)c2[C@@H](O[C@H]2C[C@H](N)[C@@H](O)[C@H](C)O2)C1)C(=O)c1ccccc1C3=O , field Potency: 1.48 µM (active)
